- Tested on: barnyardgrass (Echinochloa crus-galli)
- assay details: Test A postemergence
- Assay type: in vivo
- experimental conditions: Postemergence, 500 g ai/ha; 0 to 100 scale where 0 is no effect and 100 is complete control
Threshold 90. Plant response rating, Barnyardgrass below it: t. Plant response rating, Barnyardgrass at it or above: f.

| molecule | classification |
| --- | --- |
| C=C(Cl)CN1CC(c2cccc(C(F)(F)F)c2)C(C(=O)Nc2ccccc2F)C1=O (centres unmarked) | t |
| CCc1cccc(C2CN(C)C(=O)C2C(=O)Nc2ccc(F)cc2F)c1 (centres unmarked) | f |
| CC(C)c1ccc(C2CNC(=O)C2C(=O)Nc2ccccc2S(C)(=O)=O)cc1 (racemic) | t |
| O=C1NCC(c2ccc(C3CC3)cc2)C1C(=O)Nc1cccc(F)c1F (racemic) | t |

Let's switch to this molecule now.
query: Consider the molecule CN1CC(c2cccc(C(F)(F)F)c2)C(C(=O)Nc2ccccc2)C1=O (centres unmarked) . Is its Plant response rating, Barnyardgrass strictly less than 90?
result: f

###

- Test system: ivy-leaved morning glory (Ipomoea hederacea)
- assay details: Test G Post-Emergence Protocol
- Assay type: in vivo
- experimental conditions: Ipomoea, post-emergence, 312 h, 250 g ai/ha, evaluated after 13 days, read-out: damage to plant, Morningglory, Ivy-leaved (100=total damage to plant; 0=no damage to plant)
- Source text: Seeds of corn (Zea mays), giant foxtail (Setaria faberi), barnyardgrass (Echinochloa crus-galli), ivy-leaved morning glory (Ipomoea hederacea), redroot pigweed (Amaranthus retroflexus) and velvetleaf (Abutilon theophrasti) were sown in standard soil in pots. […]
Rule: pest or weed control at 250 g/ha below 10% gives true (1), anything at or above gives false (0).

| molecule | classification |
| --- | --- |
| Cc1cc(NC(=O)[C@@H]2C(=O)N(C)C[C@H]2c2ccc(C(F)(F)F)cc2)n[nH]1 (racemic) [Compound 1532] | true (1) |
| CN1C[C@H](c2cccc(C(F)(F)F)c2)[C@@H](C(=O)Nc2cccnc2F)C1=O [Compound 1397] | false (0) |
| CN1C[C@@H](c2ccc(C(F)(F)F)cc2)[C@H](C(=O)Nc2ccn(C)n2)C1=O (racemic) [Compound 1615] | true (1) |

query: Is pest or weed control at 250 g/ha of CN1C[C@H](c2ccc(C(F)(F)F)cc2)[C@](C)(C(=O)Nc2cccc(F)c2F)C1=O (racemic) [Compound 1406] strictly below 10%?
result: true (1)

query: Given Cc1c(NC(=O)[C@@H]2C(=O)N(C)C[C@H]2c2ccc(C(F)(F)F)cc2)ccnc1Cl (racemic) [Compound 1631] , is recorded pest or weed control at 250 g/ha strictly lower than 10%?
result: false (0)

query: Record CSc1nc(N)cc(NC(=O)[C@@H]2C(=O)N(C)C[C@H]2c2ccc(C(F)(F)F)cc2)n1 (racemic) [Compound 1644] : is its pest or weed control at 250 g/ha strictly below 10%?
result: false (0)

###

- System: pigweed (Amaranthus retroflexus)
- assay details: Test A postemergence
- Format: in vivo
- experimental conditions: Amaranthus retroflexus, post-emergence, 240 h, Postemergence, 500 g ai/ha; visual injury, 0 to 100 scale (0 no effect, 100 complete control), approx. 10 d; read-out: Plant response rating, Pigweed
Recorded pest or weed control at 500 g/ha by entry
Write the value in % as a bare number.

Worked cases, answers included:
| compound | quantity | numeric value |
| --- | --- | --- |
| O=C1NCC(c2ccccc2)C1C(=O)Nc1ccccc1 (stereo not shown) | pest or weed control at 500 g/ha | 0 |
| N#Cc1ccc(NC(=O)C2C(=O)NCC2c2ccccc2)cc1 (stereo not shown) | pest or weed control at 500 g/ha | 0 |
| CO[C@]1(C(=O)Nc2cccc(F)c2F)C(=O)N(C)C[C@@H]1c1ccc(C(F)(F)F)cc1 (racemic) | pest or weed control at 500 g/ha | 40 |

query: Note down pest or weed control at 500 g/ha recorded for `CN1C[C@H](c2ccc(F)c(C#N)c2)[C@@H](C(=O)Nc2cccc(F)c2F)C1=O`
result: 30

query: Give recorded pest or weed control at 500 g/ha. `CN1C[C@H](c2ccc(C(F)(F)F)nc2)[C@@H](C(=O)Nc2cccc(F)c2F)C1=O`
result: 80

query: Please give measured pest or weed control at 500 g/ha of the following entry: `O=C1NC[C@H](c2ccc(OC(F)F)cc2)[C@H]1C(=O)Nc1ccc(F)cc1F`
result: 90

query: Determine from records and report pest or weed control at 500 g/ha for `CN1C[C@H](c2ccc(C(F)F)cc2)[C@@H](C(=O)Nc2ccc(F)c(F)c2F)C1=O`
result: 70
